Reference source: ChEMBL document CHEMBL1201862

test system: Hs-578T; test: NCI tumour cell line growth inhibition, 48 h
The source made the active and inactive calls. Cut-off read from the data, not from the text of the source: active = GI50 up to about 1.1 µM and inactive = higher.
For each entry below, report its GI50 value.

Check out these entries, answers already filled in.
O=C1c2ccccc2-c2nc(-c3cccs3)cc3c2c1nc1ccccc13	21.3 µM (inactive)
CCOC(=O)N1c2ccccc2N(C(=O)OCC)C1CC(=O)/C=C/c1ccccc1	1.87 µM (inactive)
CC(=O)OCC1(C)C(O)CCC2(C)C1CCC1CC3CC12CCC3(O)CO (stereo unspecified)	> 53.6 µM (inactive)
C=C(C)CN(CC#N)CC(=C)C	83.2 µM (inactive)
C=CCOC1OC(CS(=O)(=O)O)C(O)C(O)C1O (stereo unspecified)	> 100 µM (inactive)

[Q] State the recorded GI50 for this entry: COC(=O)c1cccc(COc2ccc([N+](=O)[O-])cc2Cl)c1
[A] 60.1 µM (inactive)

====

Field: GI50. Provide a value for each of the molecules that follow.
system: HCT-15; test: NCI tumour cell line growth inhibition, 48 h
One number for each entry, in µM.

Worked cases, GI50 given:
c1ccc2c(c1)c1c(n2CCOCCN2CCOCC2)CCCC1	36.5
O=C(COC(=O)c1ccccc1)c1ccc(Br)cc1	3.35
CC1=NN(c2cccc(Cl)c2)C2(SCC(=O)N2c2nc3ccccc3s2)C1=CC=Cc1ccccc1 (stereo unspecified)	29.2
Nc1nc(Cl)cc(NCC2(CO)CCC(Cc3ccccc3)C2)n1 (stereo unspecified)	27.4
O=C(N/N=C\c1cccc2c([N+](=O)[O-])cccc12)Nc1ccccc1	11.2
CN1c2ccc(O)c(O)c2-c2cc(O)cc3c2C1CCC3 (stereo unspecified)	20.6
C=C1CC(CC)(CCN2C(=O)c3ccccc3C2=O)OC1=O (stereo unspecified)	13.9
O=C(CC1(O)C(=O)Nc2ccc([N+](=O)[O-])cc21)c1ccncc1 (stereo unspecified)	83.8
CC1(C)CCCC2(C)C3=C(CCC12)C(=O)OC3 (stereo unspecified)	87.9
COc1cc(OC)c(C2c3cc4c(cc3OC(N3CCCC3)C2C)OCO4)c(OC)c1 (stereo unspecified)	6.11

Dear colleague, could you send me GI50 for each of the items below? Thanks.
1. CC(=O)O[C@H]1C(=O)N(c2cc3c4ccccc4ccc3c3ccccc23)[C@@H]1c1ccccc1
2. COc1cccc(C2c3cc4c(cc3OC(C)(N3CCCC3)C2C)OCO4)c1O (stereo unspecified)
3. COc1ccc(S(=O)(=O)c2nnc(S(=O)(=O)Cc3ccccc3)s2)cc1

[A]
1. 3.85
2. 3.6
3. 25.7

Quick request: GI50 for each listed item, please.
1. Cc1c(C(=O)c2ccc(N)c3ccccc23)c2ccccc2n1CCN1CCOCC1
2. COc1ccc2c(O)c3[n+](cc2c1OC)CCc1cc2c(cc1-3)OCO2

[A]
1. 21
2. 84.3

====

tested on: M14; test: NCI tumour cell line growth inhibition, 48 h
Calls of active or inactive are those of the source. Cut-off read from the data, not from the text of the source: active = GI50 up to about 1.1 µM and inactive = higher.
Record form. Attribute: GI50. Fill in for each entry.

# count of solved cases: 5
O=S(=O)(O)c1cc(/N=N/c2cc(S(=O)(=O)O)c3ccccc3c2O)ccc1/C=C/c1ccc(/N=N/c2cc(S(=O)(=O)O)c3ccccc3c2O)cc1S(=O)(=O)O	131 µM (inactive)
NC(=O)C(NC=O)c1ccccc1 (centres undefined)	> 100 µM (inactive)
COc1nc(O)nc2c1C(c1ccc([N+](=O)[O-])cc1)c1c(OC)nc(O)nc1O2	> 100 µM (inactive)
CS(=O)(=O)CCC1CCC(=O)O1 (centres undefined)	> 100 µM (inactive)
O=C1C(Nc2ccc(S(=O)(=O)Nc3cnc4ccccc4n3)cc2)=C/C(=N\c2ccc(S(=O)(=O)Nc3cnc4ccccc4n3)cc2)c2ccccc21	18.5 µM (inactive)

State recorded GI50 for all listed molecules.
1. N#C/C(=C\c1cn(Cc2ccccc2)c2ccccc12)c1nn(-c2ccccc2)c(N)c1C#N
2. Cc1c2c(OCCN3CCCCC3)nn(C)c(=O)c2c(C)n1-c1ccccc1
3. CC#CC(OCC)(OCC)OCC

[A]
20.4 µM (inactive)
18.5 µM (inactive)
> 100 µM (inactive)

[Q] # get_value(readout='GI50', item= CC1=C(C(=O)Nc2ccccc2C)C(c2ccccc2O)C(C(=O)Nc2ccccc2C)=C(C)N1 )
[A] 18.2 µM (inactive)
